B1: library; numbered along this chain (parent)
chain: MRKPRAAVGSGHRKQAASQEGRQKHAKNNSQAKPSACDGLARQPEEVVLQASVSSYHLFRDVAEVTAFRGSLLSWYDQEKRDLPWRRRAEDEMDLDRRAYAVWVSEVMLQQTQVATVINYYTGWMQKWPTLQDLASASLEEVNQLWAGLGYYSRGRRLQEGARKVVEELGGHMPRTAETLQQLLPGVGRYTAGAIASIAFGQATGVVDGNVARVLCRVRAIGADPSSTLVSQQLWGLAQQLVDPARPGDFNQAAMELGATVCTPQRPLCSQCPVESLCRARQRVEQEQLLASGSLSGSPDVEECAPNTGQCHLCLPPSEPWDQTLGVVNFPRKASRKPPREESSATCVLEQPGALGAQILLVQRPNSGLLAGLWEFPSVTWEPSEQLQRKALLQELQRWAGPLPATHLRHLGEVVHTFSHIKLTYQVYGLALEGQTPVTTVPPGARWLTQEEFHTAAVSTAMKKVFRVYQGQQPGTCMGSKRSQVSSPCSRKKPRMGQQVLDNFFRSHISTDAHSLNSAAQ

variants of: B1; assay: 8OG:A repair function score (normalized; synonymous = 0, nonsense = -1) (normalized log-likelihood score); higher = more repair activity (WT-like); conditions: with 8OG:A DNA repair reporter (GFP) in HEK-293 MUTYH KO cells;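 further: cells sorted at 72 h after reporter transfection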
The label depends only on 8OG:A repair function score: Y if it is at least -0.04, N if it is smaller.

Solved entries (count: 10):
>>> df
   variant_key  qualitative_label
0        Y152K                  N
1         R88P                  Y
2        T439S                  Y
3        L215N                  N
4         Q43S                  Y
5        F466P                  N
6        G497C                  N
7        R175C                  N
8        C269N                  N
9        A194S                  N

Has R175H a recorded 8OG:A repair function score greater than or equal to -0.04?
N

Is it the case that K464E has 8OG:A repair function score reaching or exceeding -0.04?
N

Test whether the variant Q394R records 8OG:A repair function score of -0.04 or higher.
N

Could you tell me if the measured 8OG:A repair function score of V53D reaches -0.04 or more?
Y

Item A192N with 8OG:A repair function score of -0.04 or above?
N
